# study target: hamster PrP conversion reaction (PrPsen to PrPres) (Mesocricetus auratus)
# assay comment: biochemical
# Set-up: species or system Syrian golden hamster
Ends that are not written are not given here.
recorded endpoint: IC50

What value of IC50 has been recorded for this entry: GAVVGGLGGYMLGSAMSR [P119-130]
< 100 µM

These entries and their values trace back to patent US6355610B2.
